target: SIRT1 (Homo sapiens); assay: Mass spectrometry based assay to identify modulators (activators) of SIRT1 activity; assay type: biochemical; settings: 0.5 μM peptide substrate, 120 μM βNAD+, 10 nM SIRT1, 25 minutes at 25° C.
Sequence (Q96EB6 whole entry): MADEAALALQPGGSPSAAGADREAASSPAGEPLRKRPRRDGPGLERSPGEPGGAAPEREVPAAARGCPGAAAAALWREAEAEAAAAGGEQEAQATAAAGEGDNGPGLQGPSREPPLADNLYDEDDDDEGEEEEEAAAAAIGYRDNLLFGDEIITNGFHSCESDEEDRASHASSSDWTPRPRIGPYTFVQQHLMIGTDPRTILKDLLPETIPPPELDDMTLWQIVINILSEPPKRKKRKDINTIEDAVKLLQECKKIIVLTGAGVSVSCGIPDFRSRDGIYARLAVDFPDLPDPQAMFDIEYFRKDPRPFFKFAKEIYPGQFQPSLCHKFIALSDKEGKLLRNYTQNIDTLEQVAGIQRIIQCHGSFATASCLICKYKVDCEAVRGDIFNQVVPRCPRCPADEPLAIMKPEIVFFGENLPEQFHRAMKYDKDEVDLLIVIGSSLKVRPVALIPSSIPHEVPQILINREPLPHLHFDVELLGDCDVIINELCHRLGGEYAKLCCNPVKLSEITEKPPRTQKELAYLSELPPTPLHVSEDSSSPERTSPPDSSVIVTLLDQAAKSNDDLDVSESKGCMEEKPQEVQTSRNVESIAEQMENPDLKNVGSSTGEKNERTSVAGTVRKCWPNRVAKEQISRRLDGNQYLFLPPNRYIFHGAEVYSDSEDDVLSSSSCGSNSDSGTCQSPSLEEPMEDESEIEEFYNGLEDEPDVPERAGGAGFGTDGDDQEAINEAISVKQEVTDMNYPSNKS
Measured Property: FOLD ACT. (percent maximum fold activation)

Compound Structure: COCCN1CCN(Cc2sc(-c3ccccc3)nc2C(=O)Nc2ccccc2-c2nc3cccnc3s2)CC1
Measured Value: A (Fold activation≧300%)

Compound Structure: COCCN1CCN(Cc2oc(-c3ccccc3)nc2C(=O)Nc2ccccc2-c2nc3cccnc3s2)CC1
Measured Value: C (Fold Activation<150%)

Compound Structure: O=C(Nc1ccccc1-c1nc2cc(CN3CCOCC3)cnc2s1)c1csc(-c2ccccc2)n1
Measured Value: A (Fold activation≧300%)

Compound Structure: CC(C)(C)OC(=O)N1CCN(Cc2oc(-c3ccccc3)nc2C(=O)Nc2ccccc2-c2nc3cccnc3s2)CC1
Measured Value: C (Fold Activation<150%)

Compound Structure: CC(C)N1CCN(Cc2sc(-c3ccccc3)nc2C(=O)Nc2ccccc2-c2nc3cccnc3s2)CC1
Measured Value: A (Fold activation≧300%)

Compound Structure: COCCN1CCN(Cc2cnc3sc(-c4ccccc4NC(=O)c4nc(-c5ccccc5)cs4)nc3c2)CC1
Measured Value: A (Fold activation≧300%)

Compound Structure: COCCN1CCN(Cc2cnc3sc(-c4ccccc4NC(=O)c4csc(-c5ccccc5)n4)nc3c2)CC1
Measured Value: A (Fold activation≧300%)

Compound Structure: O=C(Nc1ccccc1-c1nc2cccnc2s1)c1nc(-c2ccccc2)oc1CN1CCOCC1
Measured Value: C (Fold Activation<150%)

Compound Structure: O=C(Nc1ccccc1-c1nc2cccnc2s1)c1nc(-c2ccccc2)sc1CCCN1CCCC1
Measured Value: A (Fold activation≧300%)

###

target: SIRT1 (Homo sapiens); assay: Mass spectrometry based assay to identify modulators (activators) of SIRT1 activity; assay type: biochemical; conditions: SIRT1 activation; 0.5 μM peptide substrate, 120 μM βNAD+, 10 nM SIRT1, 25 minutes at 25° C.

Compound Structure: CC(C)N1CCN(Cc2sc(-c3ccccc3)nc2C(=O)Nc2ccccc2-c2nc3cccnc3s2)CC1
EC1.5: A (EC1.5≦1 uM)
--
Compound Structure: COCCN1CCN(Cc2oc(-c3ccccc3)nc2C(=O)Nc2ccccc2-c2nc3cccnc3s2)CC1
EC1.5: C (EC1.5>10 uM)
--
Compound Structure: O=C(Nc1ccccc1-c1nc2cc(CN3CCOCC3)cnc2s1)c1csc(-c2ccccc2)n1
EC1.5: A (EC1.5≦1 uM)
--
Compound Structure: O=C(Nc1ccccc1-c1nc2cccnc2s1)c1nc(-c2ccccc2)sc1CCCN1CCCC1
EC1.5: A (EC1.5≦1 uM)
--
Compound Structure: O=C(Nc1ccccc1-c1nc2cccnc2s1)c1nc(-c2ccccc2)oc1CN1CCOCC1
EC1.5: C (EC1.5>10 uM)
--
Compound Structure: O=C(Nc1ccccc1-c1nc2cc(CN3CCCC3)cnc2s1)c1nc(-c2ccccc2)cs1
EC1.5: A (EC1.5≦1 uM)
--
Compound Structure: O=C(Nc1ccccc1-c1nc2cccnc2s1)c1nc(-c2ccccc2)sc1CN1CCOCC1
EC1.5: A (EC1.5≦1 uM)

Origin of values: patent US8492401B2
